MEASUREMENT NAME: melting point (°C)

| MOLECULE | OBSERVED VALUE |
| --- | --- |
| CC(=O)c1occc1O | 100 |
| O=C(O)CSCC(=O)O | 129 |
| c1ccc2c(c1)Nc1ccccc1S2 | 188 |
| CSC#N | -5 |
| CC(C)(O)C#CC(C)(C)O | 95 |
| Cc1ccccc1N.Cl | 215 |
| Cc1ccccc1CN | -30 |
| O=C1C=CC(=O)c2c(O)ccc(O)c21 | 232 |
| COC1=CC(=O)O[C@@H](/C=C/c2ccccc2)C1 | 106 |
| OCc1ccc(CO)cc1 | 118 |
| C=C(C)C1CC=C(C)CC1 (stereo unspecified) | -86.4 |
| CCCCCCCCCCCCCCCCCCCCCCCC(=O)O | 84.2 |
| COc1cccc(OC)c1C#N | 119 |
| CCCN(CCC)C(=O)C(CCC(=O)O)NC(=O)c1ccccc1 (stereo unspecified) | 144 |
| CC(C)C(C)(C)O | -14 |
| N#Cc1cccc(N)c1 | 54.3 |
| CC(C)CCNCCC(C)C | -44 |
| COC(=O)C(=O)OC | 54.3 |
| CC(C)c1ccc(O)cc1 | 62.3 |
| CC(C)NC(=N)NC(=N)Nc1ccc(Cl)cc1 | 129 |
| Cc1ccc(O)cc1N | 158 |
| CC12CCC(C(Br)C1=O)C2(C)C (stereo unspecified) | 76.5 |
| OCC(F)(F)C(F)F | -15 |
| O=C(CC(=O)c1ccccc1)c1ccccc1 | 70.5 |
| Ic1ccccc1 | -31.3 |
| Cc1c(C(C)C)c(=O)n(-c2ccccc2)n1C | 103 |

====

| MOLECULE | VALUE UNITS | melting point |
| --- | --- | --- |
| CCN(CC)C(=S)SSC(=S)N(CC)CC | °C | 71.5 |
| CC(C)(C)CC(C)(C)Nc1ncnc(N(CCCCCCNC2CC(C)(C)NC(C)(C)C2)C2CC(C)(C)NC(C)(C)C2)n1 | °C | 138 |
| Oc1ccccc1S | °C | 5.5 |
| O=C1CCCC1C1CCCC1 (configuration not stated) | °C | -13 |
| Nc1cn[nH]c1 | °C | 81 |
| CC(C)CCC[C@@H](C)[C@H]1CC[C@H]2[C@@H]3CCC4=C[C@@H](O)CC[C@]4(C)[C@H]3CC[C@]12C | °C | 132 |
| C/C=C\C(C)(C)C | °C | -135 |
| N#Cc1cccc(C(F)(F)F)c1 | °C | 14.5 |
| N#Cc1c(F)cccc1F | °C | 31 |
| CCN1C[C@]2(COC)[C@H](O)C[C@H](OC)[C@]34C1[C@H]([C@H](OC)[C@H]23)[C@]1(O)[C@H]2[C@@H](O)[C@](O)(C[C@H]24)[C@@H](OC)[C@@H]1O | °C | 132 |
| O=C(O)c1ccc(F)cc1 | °C | 185 |
| CCCCC1CCCCC1 | °C | -74.7 |
| FC(F)(F)c1cccc(Br)c1 | °C | 1 |
| CCCCNC | °C | -75 |
| CCOc1ccccc1F | °C | -16.7 |
| CCCCCCCCN(C)CCCCCCCC | °C | -30.1 |
| O=C(O)Cc1cccc(Cl)c1 | °C | 78.8 |
